- assay-name: survival after telomere uncapping, modulators, primary screen, cell-based (AID 1259312);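 also: virus expresses mutant telomerase RNA that uncaps telomeres and kills cells; compound added 2 days after infection so exposure lasts 3 days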
- condition-description: HCT116 + Ad-hTR-mut, MTT, 5 d; at 10 µM
Out of some 4,500 compounds screened, about 200 (4.4%) were called active.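 The calls were made as follows: active = cell survival measured by absorbance rises more than 2.5-fold over infected cells without compound; inactive = the rest.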 This excerpt belongs to a sample that is enriched for actives.
Tick one outcome: label 1 (active), label 0 (inactive)

[
  {
    "molecule": "Fc1ccc(-c2cnc3ccccc3n2)cc1",
    "classification": "label 0"
  },
  {
    "molecule": "O=C(Nc1ccc(I)cc1)C1CC(=O)N(C2CCCCC2)C1 (centres undefined)",
    "classification": "label 0"
  },
  {
    "molecule": "NC(=O)CCCc1c[nH]c2ccccc12",
    "classification": "label 0"
  },
  {
    "molecule": "O=C(NC1CCCC1)c1ccc(COc2cc(Cl)ccc2Cl)o1",
    "classification": "label 0"
  },
  {
    "molecule": "Cc1cc(C)nc(/N=C(/N)Nc2ccc(C)c([N+](=O)[O-])c2)n1",
    "classification": "label 0"
  },
  {
    "molecule": "CN(Cc1cc(Br)cc(Br)c1N)C1CCCCC1",
    "classification": "label 0"
  },
  {
    "molecule": "COc1cc(NS(=O)(=O)c2ccc(N)cc2)nc(OC)n1",
    "classification": "label 1"
  },
  {
    "molecule": "Nc1nonc1-c1ccccc1",
    "classification": "label 0"
  }
]

Entry O=S(=O)(NCCCl)c1ccccc1 : call = ?
label 0

Record request — test call for O=S(=O)(NC1CCCCCC1)c1ccc(Cl)cc1
label 0

====

- assay-name: survival after telomere uncapping, modulators, primary screen, cell-based (AID 1259312);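 also: virus expresses mutant telomerase RNA that uncaps telomeres and kills cells; compound added 2 days after infection so exposure lasts 3 days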
- condition-description: HCT116 + Ad-hTR-mut, MTT, 5 d; at 10 µM, hits give high values
The campaign covered roughly 4,500 compounds. About 200 (4.4%) were called active. What follows is part of a selection rich in actives, with near analogues and random picks from the rest.
quantity: fold change
// no unit, no text: just the number

[
  {
    "molecule": "O=C1CC(c2ccccc2)CC2=C1C(c1ccc(OC(F)(F)F)cc1)Nc1ccccc1N2 (centres undefined)",
    "fold change": -1.06
  },
  {
    "molecule": "CC1(C)O[C@@H]2[C@H](O1)[C@@H](CO)O[C@H]2n1cnc2c(N)ncnc21",
    "fold change": -1.14
  },
  {
    "molecule": "O=S(=O)(Nc1cc(Cl)c(Cl)cc1Cl)c1ccc(Cl)cc1",
    "fold change": 3.01
  }
]

fold change lookup needed for O=S(=O)(NC1CCCCCC1)c1ccc(F)cc1 , thanks.
-1.23

Entry CCc1sc(/C=C(/C#N)C(=O)OC)cc1[N+](=O)[O-] : reported fold change = ?
-2.59

Returns the measured fold change for the input molecule. Input: OCc1ccc(O)c2ncccc12
-7.69

For the molecule NCC12CC3CC(CC(C3)C1)C2 , what fold change is on record?
-1.38

# input molecule: Nc1nc(SCC(=O)Nc2ccc(Br)cc2)sc1C(=O)Nc1nccs1 ; wanted: its fold change
-1.48

Give its fold change value. Item: O=[N+]([O-])c1cc(CN2CCCC2)c2cccnc2c1O
3.06

What measured fold change goes with Nc1ccc(N2CCCC2)c(C(F)(F)F)c1 ?
1.69

Which fold change reading was recorded for the molecule O=[N+]([O-])c1ccc(NS(=O)(=O)c2ccccc2)c([N+](=O)[O-])c1 ?
3.49

I have this molecule here, O=C1OC(C2OC(=O)c3ccccc32)c2ccccc21 (centres undefined) , and I need its recorded fold change.
-2.64

Data request, read-out fold change, for CC1Oc2ccc(S(=O)(=O)NCCCn3ccnc3)cc2NC1=O (centres undefined)
1.47

// fold change lookup, key: CC1(C)CC2CC(C)(CN2S(=O)(=O)c2ccc(N)cc2)C1 (centres undefined)
-1.15
